Test system: Plasmodium falciparum
Experiment: Antimalarial activity against Plasmodium falciparum FCK2 by [3H]hypoxanthine uptake
Type: functional, organism-based
Quantity Kind: pIC50
Numbers only, as −log10 of the molar value.

Qu. Fill: pIC50 (Plasmodium falciparum) for this molecule N=C(N)NCCCCCCC(=O)NC(O)C(=O)NCCCCNCCCN (stereo unspecified) [GUSPERIMUS]
Ans. 6.83
